assay: NCI Yeast Anticancer Drug Screen. Data for the mec2-1 strain (AID 157); conditions: S. cerevisiae mec2-1 strain, at 3.7 µM, stronger effect = higher value
The panel holds about 79,000 compounds, 15% with a hit somewhere; the sample as a whole holds those more often. Activity calls are given as the source filed them. Rule as the data show it: active = growth inhibition above about 70%; inactive = the rest.
Measured Attribute: growth inhibition

O=C(/C=C/c1cc(Cl)cc(Cl)c1O)c1cccc(O)c1 = 0% (inactive)
O=[n+]1c2ccccc2n([O-])c2cc(Br)ccc21 = 52% (inactive)
CCN(CC)CCOc1cc(C)c2cc(Cc3ccccc3)ccc2n1 = -3% (inactive)
NNC(=O)CCc1cc2ccccc2c2ccccc12 = -2% (inactive)
CCOC(=O)c1[nH]n(-c2ccccc2)c(=O)c1C=NC(=S)C(N)=S = 5% (inactive)

-- ask Entry under review: O=C(NNc1ccccc1)C(O)C(O)C(O)C(O)C(O)CO (stereo unspecified) . Reported growth inhibition?
-- reply 2% (inactive)

-- ask Entry "O=C1C=C(Cl)C(=O)N1c1cccc(Cl)c1" please
-- reply 63% (inactive)

-- ask Entry N=C1N=Nc2nc(C3(c4nc5n(c4O)C(=N)N=N5)Cc4ccccc4C3=O)c(O)n21 (stereo unspecified) please
-- reply 4% (inactive)

-- ask Entry "CC[N+](CC)(CC)c1ccccc1" please
-- reply -3% (inactive)

-- ask Entry "Cc1cc2cc3cc(C)c(N)cc3nc2cc1N" please
-- reply -5% (inactive)

-- ask Entry "C(=Nc1ccc(-c2cc(-c3ccccc3)nc3ccc4ccccc4c23)cc1)c1ccccc1" please
-- reply 5% (inactive)

-- ask Entry CC1CC(C)(C)CC(OCCN2CCCCC2)(c2ccccc2)C1 (stereo unspecified) please
-- reply 3% (inactive)

-- ask Entry COc1cc(C2c3cc4c(cc3OC(OC(C)=O)C2C)OCO4)cc(OC)c1OC (stereo unspecified) please
-- reply 0% (inactive)

-- ask Entry "CC(C)(C)CC(C)(C)c1cc(O)c(O)c(CN2CCCCC2)c1" please
-- reply 1% (inactive)
